Could you please report measured half-life for the items listed next?
Experiment: Half life in rat liver microsomes by HPLC analysis in presence of NADPH
Format: ADME
Give the quantity in min, number only.

### Prompt Return reported half-life; argument: COc1cc(OC)c2c(c1Cl)O[C@]1(C2=O)C(OCc2ccccc2)=C/C(=N\OCC(=O)O)C[C@H]1C
### Response 449

### Prompt For the compound COc1cc(OC(F)F)c(Cl)c2c1C(=O)[C@@]1(O2)C(OCc2ccccc2)=CC(=O)C[C@H]1C , what half-life is on record?
### Response 53

### Prompt State the recorded half-life for this entry: COc1cc(OC)c2c(c1Cl)O[C@]1(C2=O)C(OCc2ccccc2)=CC(=O)C[C@H]1C
### Response 60

### Prompt For the compound COc1cc(OC)c2c(c1Cl)O[C@]1(C2=O)C(OCc2ccccc2)=C/C(=N\O)C[C@H]1C , what half-life is on record?
### Response 57

### Prompt What measured half-life goes with COC1=CC(=O)C[C@@H](C)[C@]12Oc1c(Cl)c(OC)cc(OC)c1C2=O ?
### Response 58

### Prompt Return reported half-life; argument: COc1cc(OC(F)F)c2c(c1Cl)O[C@]1(C2=O)C(OCc2ccccc2)=CC(=O)C[C@H]1C
### Response 26

meta.source: ChEMBL document CHEMBL3792375
